Values were extracted from paper PMC11106742.

test system: E. coli; type: cell-based
Bridge positions count the residues as written; N and C are the ends. Square brackets hold non-standard residues; d marks the D form. Peptide text beside a SMILES is read from it. * marks the point of attachment. aIle = CC[C@@H](C)[C@H](N)C(=O)O; NMeL = CN[C@@H](CC(C)C)C(=O)O; Octanoyl = CCCCCCCC(=O)*; Pentanoyl = CCCCC(=O)*
Each record here notes measured MIC.

COMPOUND	MIC
CCCCC(=O)N[C@H]1CCCCNC(=O)[C@H](CO)NC(=O)[C@H](CO)NC(=O)[C@H]([C@H](C)CC)NC(=O)[C@H](CC(C)C)N(C)C1=O [S7, C5-Globomycin(N-Lys)] (Pentanoyl-K[NMeL][aIle]SS; lactam 1-C)	> 200 µg/mL
CCCCCCCC(=O)N(C)[C@@H](CC(C)C)C(=O)N[C@H](C(=O)N[C@@H](CO)C(=O)N[C@H](C(=O)NCC(=O)O)[C@@H](C)O)[C@@H](C)CC [S4, Non-alloOctanoyl-Globomycin] (Octanoyl-[NMeL]ISTG-OH)	> 200 µg/mL

====

Each record here notes measured pIC50.
target: PaLspA (Pseudomonas aeruginosa, UniProt Q9HVM5); assay: biochemical
Sequence (Q9HVM5 whole entry): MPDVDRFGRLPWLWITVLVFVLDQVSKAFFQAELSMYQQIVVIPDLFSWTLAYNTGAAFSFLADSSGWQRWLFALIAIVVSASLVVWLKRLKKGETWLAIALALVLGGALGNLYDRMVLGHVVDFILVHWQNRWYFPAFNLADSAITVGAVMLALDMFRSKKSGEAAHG
pIC50: −log10 of the molar value. Numbered stars: 1 amine (or outer) side, 2 acyl side, 3 side chain; on linkers, the order of the positions; unused ones are H or OH. Square brackets hold non-standard residues; d marks the D form. Peptide text beside a SMILES is read from it. X1 = CCCCCCCCN([C@@H](C)C(=O)[*:2])[*:1]; X4 = CCCCCCCCN([C@H](C)C(=O)[*:2])[*:1]; X2 = CCCCC[C@@H](C)N(CC(=O)[*:2])[*:1]; Gly(N-dodecyl) = CCCCCCCCCCCCNCC(=O)O; X6 = CCCCC[C@H](C)N(CC(=O)[*:2])[*:1]; X7 = CCOCCOCCOCCN(CC(=O)[*:2])[*:1]; aIle = CC[C@@H](C)[C@H](N)C(=O)O; N(octyl)Gly = CCCCCCCCNCC(=O)O; aThr = C[C@H](O)[C@H](N)C(=O)O; NMeL = CN[C@@H](CC(C)C)C(=O)O; βAla = NCCC(=O)O
ENDPOINT: pIC50

COMPOUND	ENDPOINT	OBSERVED_RESULT
CCCCCCCCCCCCN1CC(=O)N(C)[C@@H](CC(C)C)C(=O)N[C@@H]([C@H](C)CC)C(=O)N[C@@H](CO)C(=O)N[C@@H]([C@H](C)O)C(=O)NCCC1=O [G2d] (cyclo([NMeL][aIle]S[aThr][βAla][Gly(N-dodecyl)]))	pIC50	6.80
CCCCCCCCN1CC(=O)N(C)[C@@H](CC(C)C)C(=O)N[C@@H]([C@H](C)CC)C(=O)N[C@@H](CO)C(=O)N[C@@H]([C@H](C)O)C(=O)NCCC1=O [G2c] (cyclo([NMeL][aIle]S[aThr][βAla][N(octyl)Gly]))	pIC50	6.04
CCCCCCCCN1C(=O)CCNC(=O)[C@H]([C@H](C)O)NC(=O)[C@H](CO)NC(=O)[C@H]([C@H](C)CC)NC(=O)[C@H](CC(C)C)N(C)C(=O)[C@@H]1C [G2a] (cyclo([NMeL][aIle]S[aThr][βAla][X1]))	pIC50	6.52
CCOCCOCCOCCN1CC(=O)N(C)[C@@H](CC(C)C)C(=O)N[C@@H]([C@H](C)CC)C(=O)N[C@@H](CO)C(=O)N[C@@H]([C@H](C)O)C(=O)NCCC1=O [G2e] (cyclo([NMeL][aIle]S[aThr][βAla][X7]))	pIC50	5.21
CCCCCCCCN1C(=O)CCNC(=O)[C@H]([C@H](C)O)NC(=O)[C@H](CO)NC(=O)[C@H]([C@H](C)CC)NC(=O)[C@H](CC(C)C)N(C)C(=O)[C@H]1C [G2b] (cyclo([NMeL][aIle]S[aThr][βAla][X4]))	pIC50	6.37
CCCCC[C@@H](C)N1CC(=O)N(C)[C@@H](CC(C)C)C(=O)N[C@@H]([C@H](C)CC)C(=O)N[C@@H](CO)C(=O)N[C@@H]([C@H](C)O)C(=O)NCCC1=O [G1b] (cyclo([NMeL][aIle]S[aThr][βAla][X2]))	pIC50	5.43
CCCCCC[C@H]1OC(=O)CNC(=O)[C@H]([C@H](C)O)NC(=O)[C@H](CO)NC(=O)[C@H]([C@H](C)CC)NC(=O)[C@H](CC(C)C)N(C)C(=O)[C@@H]1C [globomycin, reference compound]	pIC50	7.40
CCCCC[C@H](C)N1CC(=O)N(C)[C@@H](CC(C)C)C(=O)N[C@@H]([C@H](C)CC)C(=O)N[C@@H](CO)C(=O)N[C@@H]([C@H](C)O)C(=O)NCCC1=O [G1a] (cyclo([NMeL][aIle]S[aThr][βAla][X6]))	pIC50	5.53
